tested on: Coxsakie virus B4; assay: organism not typed; type: cell-based; details: Vero
metric name: EC50

Would you please look over these solved cases?
{"molecule": "NC(=O)c1ncn([C@@H]2O[C@H](CO)[C@@H](O)[C@H]2O)n1", "subject of test": "Coxsakie virus B4", "EC50": "> 250000 nM"}
{"molecule": "Nc1ncnc2c1ncn2C[C@H](O)CO [(S)-DHPA, reference compound]", "subject of test": "Coxsakie virus B4", "EC50": "> 250000 nM"}
{"molecule": "COc1cc(/C=C/C(=O)CC(=O)/C=C/c2ccc(O)c(OC)c2)ccc1O [Curcumin, reference compound]", "subject of test": "Coxsakie virus B4", "EC50": "> 10 nM"}
{"molecule": "COc1cc(/C=C/C(=O)CC(=O)/C=C/c2ccc(OC(=O)[C@H](Cc3ccccc3)NC(=O)[C@@H](N)Cc3c[nH]c4ccccc34)c(OC)c2)ccc1OC(=O)[C@H](Cc1ccccc1)NC(=O)[C@@H](N)Cc1c[nH]c2ccccc12", "subject of test": "Coxsakie virus B4", "EC50": "> 19 nM"}
{"molecule": "COc1cc(/C=C/C(=O)C(CCOC(=O)CCC(NC(=O)c2ccc(NCc3cnc4nc(N)[nH]c(=O)c4n3)cc2)C(=O)O)C(=O)/C=C/c2ccc(O)c(OC)c2)ccc1O (stereo not shown)", "subject of test": "Coxsakie virus B4", "EC50": "> 11 nM"}
{"molecule": "COc1cc(/C=C/C(=O)CC(=O)/C=C/c2ccc(OCCOC(=O)CCC(NC(=O)c3ccc(NCc4cnc5nc(N)[nH]c(=O)c5n4)cc3)C(=O)O)c(OC)c2)ccc1O (stereo not shown)", "subject of test": "Coxsakie virus B4", "EC50": "> 119 nM"}

Consider the additional molecule presented here.
## Task # return recorded EC50 for entry COc1cc(/C=C/C(=O)CC(=O)/C=C/c2ccc(OC(=O)CCC(NC(=O)c3ccc(NCc4cnc5nc(N)[nH]c(=O)c5n4)cc3)C(=O)O)c(OC)c2)ccc1OC(=O)CCC(NC(=O)c1ccc(NCc2cnc3nc(N)[nH]c(=O)c3n2)cc1)C(=O)O (stereo not shown)
## Result > 82 nM
